Target: T1, CD47 on CHOK1-CD47 cells (UniProt Q08722 19-323)
T1 construct: whole, on cells; The rabbits were immunized with human CD47, so human is likely
T1 sequence (Q08722 19-323 limits assumed): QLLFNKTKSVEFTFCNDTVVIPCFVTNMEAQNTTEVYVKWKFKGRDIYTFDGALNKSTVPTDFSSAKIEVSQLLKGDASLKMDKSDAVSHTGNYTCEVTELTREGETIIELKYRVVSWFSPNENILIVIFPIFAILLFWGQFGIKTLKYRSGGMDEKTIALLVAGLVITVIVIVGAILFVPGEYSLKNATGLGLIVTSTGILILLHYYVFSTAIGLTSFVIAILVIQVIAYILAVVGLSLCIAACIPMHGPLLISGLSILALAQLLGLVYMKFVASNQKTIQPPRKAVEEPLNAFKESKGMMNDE
Experiment: flow cytometry on CHOK1-CD47 cells
reported_metric: pEC50
Conceptually, pEC50 converts a concentration in mol/L into minus its log10.

Consider the reported pEC50 for these binders:
binder: 70H1.IgG1.Y61C (antibody, V domains shown, IgG1; also called 70H1 IgG1-mutation; 70H1 mutant VH-61 (Y-C)) VH: QQQLEESGGGLVKPEGSLTLTCTASGFSFSSGYDMCWVRQAPGRGLEWIACIYTRSSGGTCYASWAKGRFTISKTSSTVDLRMTSLTAADTATYFCAGGRSSYRLNLWGQGALVTVSS VL: DVVMTQTPSPVEAAVGGTVTIKCQASQSISNELSWYQQKPGQPPKLLIYRASTLESGVSSRFKGSGSGTEFTLTISDLECADAATYYCQSTFYGDYGNAFGGGTEVVVK
pEC50: 9.41

binder: 70H1 (antibody, V domains shown, Rabbit-derived variable regions; also called 70H1.IgG1; 70H1 antibody) VH: QQQLEESGGGLVKPEGSLTLTCTASGFSFSSGYDMCWVRQAPGRGLEWIACIYTRSSGGTYYASWAKGRFTISKTSSTVDLRMTSLTAADTATYFCAGGRSSYRLNLWGQGALVTVSS VL: DVVMTQTPSPVEAAVGGTVTIKCQASQSISNELSWYQQKPGQPPKLLIYRASTLESGVSSRFKGSGSGTEFTLTISDLECADAATYYCQSTFYGDYGNAFGGGTEVVVK
pEC50: 9.42

INPUT: Report pEC50 for CD47 TMEAbody activated (antibody, IgG1, V domains shown, Cys 61 (Y61C): 20K PEG blocker cleaved off by legumain (asparaginyl endopeptidase); what remains on the Cys is not stated, The CD47 TMEAbody after treatment with legumain / asparaginyl endopeptidase; IgG1) VH: QQQLEESGGGLVKPEGSLTLTCTASGFSFSSGYDMCWVRQAPGRGLEWIACIYTRSSGGTCYASWAKGRFTISKTSSTVDLRMTSLTAADTATYFCAGGRSSYRLNLWGQGALVTVSS VL: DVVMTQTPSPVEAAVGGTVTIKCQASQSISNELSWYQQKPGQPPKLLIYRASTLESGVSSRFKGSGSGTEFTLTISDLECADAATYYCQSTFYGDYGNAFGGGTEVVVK please.
OUTPUT: 9.04

INPUT: Report pEC50 for CD47 TMEAbody (70H1.IgG1.Y61C + 20K PEG) (antibody, V domains shown, Cys 61 (Y61C) conjugated with PEG of approximately 20K molecular weight (blocker, cleavable by legumain), IgG1; The same question of backbone applies as for 70H1.IgG1.Y61C; also called 70H1 TMEAbody; 70H1; IgG1 + 20K PEG) VH: QQQLEESGGGLVKPEGSLTLTCTASGFSFSSGYDMCWVRQAPGRGLEWIACIYTRSSGGTCYASWAKGRFTISKTSSTVDLRMTSLTAADTATYFCAGGRSSYRLNLWGQGALVTVSS VL: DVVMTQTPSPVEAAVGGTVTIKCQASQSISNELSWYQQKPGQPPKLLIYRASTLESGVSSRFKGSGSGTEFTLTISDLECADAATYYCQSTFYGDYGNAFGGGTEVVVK please.
OUTPUT: 8.12
